Entries and their Kd values follow.
TGT: C3b (UniProt P01024 749-1663; P01024 749-1663, biotin (EZ-Link Maleimide-PEG2-Biotin, after 1 mM DTT) where immobilised on streptavidin chips; none where amine-coupled)
Sequence (P01024 23-667, chain 1 of 2): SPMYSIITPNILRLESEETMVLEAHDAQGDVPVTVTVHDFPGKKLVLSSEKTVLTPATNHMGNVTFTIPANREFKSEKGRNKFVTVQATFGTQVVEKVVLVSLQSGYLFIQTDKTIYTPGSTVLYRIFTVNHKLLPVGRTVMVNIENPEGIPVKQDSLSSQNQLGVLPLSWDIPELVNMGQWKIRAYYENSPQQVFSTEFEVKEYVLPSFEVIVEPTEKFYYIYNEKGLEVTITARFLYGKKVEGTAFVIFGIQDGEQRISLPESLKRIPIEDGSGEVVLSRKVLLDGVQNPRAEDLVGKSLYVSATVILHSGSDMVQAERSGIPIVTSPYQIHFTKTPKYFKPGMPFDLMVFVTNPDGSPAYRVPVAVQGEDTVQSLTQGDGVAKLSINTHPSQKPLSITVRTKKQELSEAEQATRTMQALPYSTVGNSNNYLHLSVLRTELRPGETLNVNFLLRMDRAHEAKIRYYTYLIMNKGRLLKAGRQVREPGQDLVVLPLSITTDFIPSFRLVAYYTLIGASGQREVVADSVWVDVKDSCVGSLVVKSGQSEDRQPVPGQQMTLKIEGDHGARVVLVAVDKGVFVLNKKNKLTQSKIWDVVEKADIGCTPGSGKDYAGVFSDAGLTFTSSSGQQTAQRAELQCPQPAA
Sequence (P01024 749-1663, chain 2 of 2): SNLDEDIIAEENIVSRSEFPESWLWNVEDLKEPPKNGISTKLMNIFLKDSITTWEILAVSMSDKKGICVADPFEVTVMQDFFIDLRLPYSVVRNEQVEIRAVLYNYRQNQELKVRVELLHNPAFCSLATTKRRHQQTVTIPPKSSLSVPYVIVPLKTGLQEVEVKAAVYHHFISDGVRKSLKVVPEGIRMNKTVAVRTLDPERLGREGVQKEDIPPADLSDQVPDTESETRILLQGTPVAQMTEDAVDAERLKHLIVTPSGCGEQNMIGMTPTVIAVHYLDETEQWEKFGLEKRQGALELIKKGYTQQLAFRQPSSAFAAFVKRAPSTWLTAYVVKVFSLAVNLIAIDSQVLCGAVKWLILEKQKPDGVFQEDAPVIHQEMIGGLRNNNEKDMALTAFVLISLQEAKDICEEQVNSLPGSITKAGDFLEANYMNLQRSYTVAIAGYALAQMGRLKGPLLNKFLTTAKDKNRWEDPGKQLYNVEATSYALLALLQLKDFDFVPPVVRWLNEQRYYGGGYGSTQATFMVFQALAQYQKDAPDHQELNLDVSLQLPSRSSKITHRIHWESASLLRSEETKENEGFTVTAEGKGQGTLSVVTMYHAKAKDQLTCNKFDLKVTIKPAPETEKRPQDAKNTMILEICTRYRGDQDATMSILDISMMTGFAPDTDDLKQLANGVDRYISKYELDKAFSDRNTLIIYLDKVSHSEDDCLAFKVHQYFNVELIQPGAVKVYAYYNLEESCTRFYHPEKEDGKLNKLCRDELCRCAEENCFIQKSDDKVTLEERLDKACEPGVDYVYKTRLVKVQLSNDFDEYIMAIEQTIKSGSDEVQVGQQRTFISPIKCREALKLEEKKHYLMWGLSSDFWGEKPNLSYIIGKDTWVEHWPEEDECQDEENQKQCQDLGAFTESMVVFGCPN
ASSAY_PROCEDURE: SPR; biotin-coupled C3b
Value expressed in µM; do not type the unit.

Reported Kd, binder FH18-20(LA) (domain or fragment) TSCVNPPTVQNAYIVSRQMSKYPSGERVRYQCRSPYEMFGDEEVMCLNGNWTEPPQCKDSTGKCGPPPPIDNGDITSFPLSVYAPASSVEYQCQNLYQLEGNKRITCRNGQWSEPPKCLHPCVISREIMENYNIALRWTAKQKLYLRTGESAEFVCKRGYRLSSRSHTLRTTCWDGKLEYPTCAKR : ____ 5.8

Any idea what Kd was measured for FH18-20 (domain or fragment) TSCVNPPTVQNAYIVSRQMSKYPSGERVRYQCRSPYEMFGDEEVMCLNGNWTEPPQCKDSTGKCGPPPPIDNGDITSFPLSVYAPASSVEYQCQNLYQLEGNKRITCRNGQWSEPPKCLHPCVISREIMENYNIALRWTAKQKLYSRTGESVEFVCKRGYRLSSRSHTLRTTCWDGKLEYPTCAKR ? 9.9

Bench note: what Kd did FH18-20(SA) (domain or fragment) TSCVNPPTVQNAYIVSRQMSKYPSGERVRYQCRSPYEMFGDEEVMCLNGNWTEPPQCKDSTGKCGPPPPIDNGDITSFPLSVYAPASSVEYQCQNLYQLEGNKRITCRNGQWSEPPKCLHPCVISREIMENYNIALRWTAKQKLYSRTGESAEFVCKRGYRLSSRSHTLRTTCWDGKLEYPTCAKR show? 10

// Kd lookup, key: FHR-1 (factor H-related protein 1, FHR-1*B, wild-type) (natural protein) EATFCDFPKINHGILYDEEKYKPFSQVPTGEVFYYSCEYNFVSPSKSFWTRITCTEEGWSPTPKCLRLCFFPFVENGHSESSGQTHLEGDTVQIICNTGYRLQNNENNISCVERGWSTPPKCRSTDTSCVNPPTVQNAYIVSRQMSKYPSGERVRYQCRSPYEMFGDEEVMCLNGNWTEPPQCKDSTGKCGPPPPIDNGDITSFPLSVYAPASSVEYQCQNLYQLEGNKRITCRNGQWSEPPKCLHPCVISREIMENYNIALRWTAKQKLYLRTGESAEFVCKRGYRLSSRSHTLRTTCWDGKLEYPTCAKR 0.6
